Assay Procedure: in vitro
Assay type: cell-based
Study Conditions: human, hi-hela cells
# CC50 at 48 h per record follows
Write the answer as a number in µM, unit excluded.

Please review the entries below; each comes with its answer.
- Compound: "COCCOC(=O)/C=C/[C@H](CCC(N)=O)NC(=O)[C@H](Cc1ccccc1)N(C)C(=O)[C@H](CC(C)C)NC(=O)SC1CCCC1 [Compound 58]"
  CC50 at 48 h (µM): 63
- Compound: "CCOC(=O)/C=C/[C@H](CCC(N)=O)NC(=O)[C@H](Cc1ccccc1)N(C)C(=O)[C@H](CSc1ccccc1)NC(=O)SC1CCCC1 [Compound 46]"
  CC50 at 48 h (µM): 18
- Compound: "CC(C)C[C@H](NC(=O)SC1CCCC1)C(=O)N(C)[C@@H](Cc1ccccc1)C(=O)N[C@H](/C=C1\\CCOC1=O)CCC(N)=O [Compound 6]"
  CC50 at 48 h (µM): 151
- Compound: "CCOC(=O)/C=C/[C@H](CCC(N)=O)NC(=O)[C@H](Cc1ccc(C)cc1)N(C)C(=O)[C@H](CCc1ccccc1)NC(=O)SCc1ccccc1 [Compound 13]"
  CC50 at 48 h (µM): 17.8
- Compound: "CCOC(=O)/C=C/[C@H](CCC(N)=O)NC(=O)[C@H](Cc1ccccc1)N(C)C(=O)[C@H](CC(C)C)NC(=O)SCC1CCCCC1 [Compound 40]"
  CC50 at 48 h (µM): 45
- Compound: "CCOC(=O)/C=C/[C@H](CCC(N)=O)NC(=O)[C@H](Cc1ccccc1)N(C)C(=O)[C@H](CCc1ccccc1)NC(=O)SCc1ccccc1 [Compound 9]"
  CC50 at 48 h (µM): 56.2
- Compound: "CCOC(=O)/C=C/[C@H](CCC(N)=O)NC(=O)[C@H](Cc1ccccc1)N(C)C(=O)[C@H](CC(C)C)NC(=O)SC1CCCC1 [Compound 5]"
  CC50 at 48 h (µM): 51.4
- Compound: "CCOC(=O)/C=C/[C@H](CCC(N)=O)NC(=O)[C@H](Cc1ccc(OC)cc1)N(C)C(=O)[C@H](CC(C)C)NC(=O)OCc1ccccc1 [Compound 3]"
  CC50 at 48 h (µM): 41.7

So for CCOC(=O)/C=C/[C@H](CCC(N)=O)NC(=O)[C@@H]1[C@@H](c2ccccc2)CCN1C(=O)[C@H](CC(C)C)NC(=O)OCc1ccccc1 [Compound 18] , the logged CC50 at 48 h turned out to be 126

Memo: CCOC(=O)/C(C)=C/[C@H](CCC(N)=O)NC(=O)[C@H](Cc1ccccc1)N(C)C(=O)[C@H](CC(C)C)NC(=O)SCC1CCCCC1 [Compound 41] , reported CC50 at 48 h: 18

Record summary for CCOC(=O)/C=C/[C@H](CCC(N)=O)NC(=O)[C@H](Cc1ccccc1)N(C)C(=O)[C@H](CC(C)C)NC(=O)SCc1ccccc1 [Compound 15] : reported CC50 at 48 h = 50.1

----------
Tgt: Rhinovirus 3C protease (RVP) serotype-14 (Human rhinovirus 14, UniProt P03303)
Construct: Recombinant Rhinovirus 3C proteases from serotypes 14, 16, 2 or 89 were prepared; made in house
Sequence (P03303 1538-1719): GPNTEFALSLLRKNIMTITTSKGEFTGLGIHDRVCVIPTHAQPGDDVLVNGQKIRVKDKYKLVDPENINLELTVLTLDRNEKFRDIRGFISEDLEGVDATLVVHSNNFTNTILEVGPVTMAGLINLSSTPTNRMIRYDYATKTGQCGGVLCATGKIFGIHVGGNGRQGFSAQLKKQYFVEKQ
Assay Procedure: Inhibition of Rhinovirus Protease, serotype 14 (FRET assay)
Type: biochemical
Study Conditions: read-out: kobs/I
kinact/KI vs 5000 M⁻¹ s⁻¹: at or above is Y, below is N.

Sample answers from the record:
- Molecule: "CCOC(=O)/C=C/[C@H](CCC(N)=O)NC(=O)C1CNCCN1C(=O)[C@H](CC(C)C)NC(=O)OCc1ccccc1 (mixture of isomers)"
  Group: "N"
- Molecule: "CCOC(=O)/C=C/[C@H](CCC(N)=O)NC(=O)[C@H](Cc1ccccc1)n1cc[nH]c1=O"
  Group: "N"
- Molecule: "CCOC(=O)/C=C/[C@H](CCC(N)=O)NC(=O)[C@H](Cc1ccccc1)N(C)C(=O)[C@H](CCc1ccccc1)NC(=O)SCc1ccccc1"
  Group: "Y"

Q: // inclusive: kinact/KI at least 5000 M⁻¹ s⁻¹? input: CCOC(=O)/C=C/[C@H](CCC(N)=O)NC(=O)[C@@H]1CCc2ncc(NC(=O)OCc3ccccc3)c(=O)n21
Ans: Y

Q: Hi, just wondering whether CCOC(=O)/C=C/[C@H](CCC(N)=O)NC(=O)C1CN(S(=O)(=O)c2ccccc2)CCN1C(=O)[C@H](CC(C)C)NC(=O)OCc1ccccc1 (mixture of isomers) shows kinact/KI of 5000 M⁻¹ s⁻¹ or higher.
Ans: N

----------
Assay Procedure: in vitro
Type: cell-based
Study Conditions: human, hi-hela cells
Measurement Name: CC50 at 48 h

- Compound: "CCOC(=O)/C=C/C(CCC(N)=O)NC(=O)[C@@H]1CCc2ncc(NC(=O)SCC)c(=O)n21 (stereo partly shown)"
  CC50 at 48 h: "> 100 µM"
- Compound: "CCOC(=O)/C=C/C(CCC(N)=O)NC(=O)[C@H](Cc1ccccc1)N1CC[C@@H](NC(=O)OCc2ccccc2)C1=O (stereo partly shown)"
  CC50 at 48 h: "> 100 µM"
- Compound: "Cc1cc(CCCCCCCOc2ccc(C3=NCCO3)cc2)on1 [WIN 51711, reference compound]"
  CC50 at 48 h: "> 60 µM"

Please find the next compound below.
Item: CCOC(=O)/C=C/C(CCC(N)=O)NC(=O)[C@H](Cc1ccccc1)N1CC[C@@H](NC(=O)SC2CCCCC2)C1=O (stereo partly shown) | CC50 at 48 h: > 100 µM

----------
Measured Ki accompanies every entry in the list below.
Tgt: Rhinovirus 3C protease (RVP) serotype-14 (Human rhinovirus 14, UniProt P03303)
Construct: Recombinant Rhinovirus 3C proteases from serotypes 14, 16, 2 or 89 were prepared
Assay Procedure: Inhibition of Rhinovirus Protease, serotype 14 (FRET assay)
Study Conditions: RVP serotype-14; 10 minute preincubation with 50 nM RVP prior to addition of substrate; read-out: INHIB (Ki)
Give the quantity in µM, number only.

Solved cases below.
- Mol: "CCOC(=O)/C=C/[C@H](CCC(N)=O)NC(=O)[C@H](Cc1ccccc1)N(C)C(=O)[C@H](CC(C)C)NC(=O)SCc1ccccc1"
  Tgt: "Rhinovirus 3C protease (RVP) serotype-14 (Human rhinovirus 14, UniProt P03303)"
  Readout Unit: "µM"
  Ki: 2.5
- Mol: "CCOC(=O)/C=C/[C@H](CCC(N)=O)NC(=O)[C@@H]1[C@@H](C)CCN1C(=O)[C@H](CC(C)C)NC(=O)OCc1ccccc1"
  Tgt: "Rhinovirus 3C protease (RVP) serotype-14 (Human rhinovirus 14, UniProt P03303)"
  Readout Unit: "µM"
  Ki: 50
- Mol: "CCOC(=O)/C=C/[C@H](CCC(N)=O)NC(=O)[C@H](Cc1ccccc1)N(C)C(=O)[C@H](CCc1ccccc1)NC(=O)SCc1ccccc1"
  Tgt: "Rhinovirus 3C protease (RVP) serotype-14 (Human rhinovirus 14, UniProt P03303)"
  Readout Unit: "µM"
  Ki: 4.4
- Mol: "CN(C(=O)[C@H](CCc1ccccc1)NC(=O)SCc1ccccc1)[C@@H](Cc1ccccc1)C(=O)N[C@H](/C=C1\\CCOC1=O)CCC(N)=O"
  Tgt: "Rhinovirus 3C protease (RVP) serotype-14 (Human rhinovirus 14, UniProt P03303)"
  Readout Unit: "µM"
  Ki: 2

Bench note, Rhinovirus 3C protease (RVP) serotype-14 (Human rhinovirus 14, UniProt P03303): entry CC(C)C[C@H](NC(=O)OCc1ccccc1)C(=O)N1CCCC[C@H]1C(=O)N[C@H](/C=C/C(=O)N1CCCCO1)CCC(N)=O , its Ki = 34

Ki of CCOC(=O)/C=C/[C@H](CCC(N)=O)NC(=O)[C@@H]1C[C@@H](OCc2ccccc2)CN1C(=O)[C@H](CC(C)C)NC(=O)OCc1ccccc1 , assay on Rhinovirus 3C protease (RVP) serotype-14 (Human rhinovirus 14, UniProt P03303), is 62

----------
Assay Procedure: in vitro
Type: cell-based
Study Conditions: human, hi-hela cells
Measurement Name: CC50 at 48 h

- Compound: "CCOC(=O)/C=C/[C@H](CCC(N)=O)NC(=O)[C@@H]1CCCN1C(=O)[C@H](CC(C)C)NC(=O)OCc1ccccc1"
  CC50 at 48 h: "> 320 µM"
- Compound: "CCSC(=O)N[C@H](C(=O)N(C)[C@@H](Cc1ccccc1)C(=O)N[C@H](/C=C1\\CCOC1=O)CCC(N)=O)C(C)C"
  CC50 at 48 h: "> 320 µM"
- Compound: "CC(C)C[C@H](NC(=O)OCc1ccccc1)C(=O)N1CCCC[C@H]1C(=O)N[C@H](/C=C/C(=O)N1CCCCO1)CCC(N)=O"
  CC50 at 48 h: "> 320 µM"
- Compound: "CCSC(=O)N[C@@H](CC(C)C)C(=O)N(C)[C@@H](Cc1ccccc1)C(=O)N[C@H](/C=C1\\CCOC1=O)CCC(N)=O"
  CC50 at 48 h: "> 320 µM"
- Compound: "CCOC(=O)/C=C/[C@H](CCC(N)=O)NC(=O)[C@H](Cc1ccccc1)N(C)C(=O)[C@H](CC(C)C)NC(=O)SC(C)C"
  CC50 at 48 h: "> 100 µM"

Entry CON(C)C(=O)/C=C/[C@H](CCC(N)=O)NC(=O)[C@@H]1[C@@H](c2ccccc2)CCN1C(=O)[C@H](CC(C)C)NC(=O)OCc1ccccc1 ; CC50 at 48 h = > 320 µM

Ref: patent US5962487A
